- Assayed Target: HIV-1 JR-CSF Env I323A (HIV-1 isolate JR-CSF) (UniProt P20871)
- Assay Notes: cell-based or functional assay

Binder	U	Fold IC50 increase relative to wild-type
PGT-131 (antibody, V domains shown) VH: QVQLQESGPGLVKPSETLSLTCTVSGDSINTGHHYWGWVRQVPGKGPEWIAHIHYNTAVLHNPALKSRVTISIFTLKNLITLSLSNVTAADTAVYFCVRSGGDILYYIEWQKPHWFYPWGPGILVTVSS VL: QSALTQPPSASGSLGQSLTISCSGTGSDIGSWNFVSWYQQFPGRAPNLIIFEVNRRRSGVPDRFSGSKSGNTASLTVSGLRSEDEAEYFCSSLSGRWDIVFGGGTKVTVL	fold	38
